Origin of measurements: ChEMBL document CHEMBL3045789

- MEASUREMENT_DESCRIPTION: AUClast in Sprague-Dawley Rattus norvegicus (rat) at 10 mg/kg, po
- Assay type: ADME, organism-based
- Set-up: time 0 - last, dose 10 mg/kg, route oral
- CONDITION_SUMMARY: plasma
MEASUREMENT_KIND: AUC(0-t) (µg·h/mL)
Quick reminder: number only, in µg·h/mL, skip the unit.

Q) Check the records and state AUC(0-t) for COc1ccc2c(n1)C1(CO2)C(=O)N(Cc2ccc(C(F)(F)F)o2)c2ccccc21 (stereo unspecified)
A) 0.0771

* * *

- TESTED_TARGET: UniProt:P08684
- Sequence (P08684 whole entry): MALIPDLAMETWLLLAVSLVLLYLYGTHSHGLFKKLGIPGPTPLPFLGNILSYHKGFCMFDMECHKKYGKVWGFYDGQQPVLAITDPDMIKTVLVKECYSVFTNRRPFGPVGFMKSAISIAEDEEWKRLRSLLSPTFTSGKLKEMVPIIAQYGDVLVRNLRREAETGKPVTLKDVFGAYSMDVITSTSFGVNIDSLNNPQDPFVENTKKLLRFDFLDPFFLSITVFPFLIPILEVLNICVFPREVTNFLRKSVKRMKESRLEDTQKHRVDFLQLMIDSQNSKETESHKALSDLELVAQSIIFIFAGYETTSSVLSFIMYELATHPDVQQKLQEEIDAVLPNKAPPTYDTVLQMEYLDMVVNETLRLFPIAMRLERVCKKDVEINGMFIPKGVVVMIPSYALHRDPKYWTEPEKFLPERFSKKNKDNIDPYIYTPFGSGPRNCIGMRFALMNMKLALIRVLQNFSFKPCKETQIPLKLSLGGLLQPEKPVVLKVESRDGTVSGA
- MEASUREMENT_DESCRIPTION: Inhibition of Homo sapiens (human) recombinant CYP3A4 at 10 uM by fluorogenic assay
- Type: ADME
MEASUREMENT_KIND: inhibition at 10 µM (%)
Quick reminder: number only, in %, skip the unit.

Below, each entry is followed by its recorded inhibition at 10 µM result.
COc1cc2c(cn1)OCC21C(=O)N(Cc2ccc(C(F)(F)F)o2)c2ccccc21 (stereo not given)	74
CCCCCN1C(=O)C2(COc3cc(F)c(F)cc32)c2ccccc21 (stereo not given)	50
COc1ccc2c(c1)OCC21C(=O)N(C[C@H]2CCCO2)c2ccccc21 (stereo not given in full)	18
COc1cc2c(cn1)OCC21C(=O)N(C[C@@H]2CCCO2)c2ccccc21 (stereo not given in full)	22
COc1cc2c(cn1)OCC21C(=O)N(CC2CCCCO2)c2ccccc21 (stereo not given)	22
O=C1N(Cc2ccccn2)c2ccccc2C12COc1cc(F)c(F)cc12 (stereo not given)	30
Cc1cc2c(cc1C)C1(CO2)C(=O)N(Cc2ccccn2)c2ccccc21 (stereo not given)	43
COc1cc2c(cc1F)OCC21C(=O)N(Cc2ccccn2)c2ccccc21 (stereo not given)	16
CCCCCN1C(=O)C2(COc3cc(OC)ccc32)c2ccccc21 (stereo not given)	64

Next compound, please.
Q) State measured inhibition at 10 µM of the compound COc1ccc2c(n1)C1(CO2)C(=O)N(Cc2ccc(Cl)s2)c2ccccc21 (stereo not given) with UniProt:P08684.
A) 73
